Test system: 695427-040-R-J1-PDC complex spheroid viability;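 also: spheroids exposed to compounds for seven days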
experimentalDetails: Anticancer human tumor 695427-040-R-J1-PDC patient-derived colon adenocarcinoma cell line growth inhibition [POLQ]
experimentalContext: second compound 10 µM; first compound 0.316 µM; stronger effect = lower value
Could you please mark T for values of viability, T/C below 80% and F for values at or above it?

Query string: Regarding CC1COCCN1c1cc(C2(O)CC3CCC(C2)O3)c2cnn(-c3ccn[nH]3)c2n1 (stereo not given) + COC1C(OC(N)=O)C(O)C(Oc2ccc3c(O)c(NC(=O)c4ccc(O)c(CC=C(C)C)c4)c(=O)oc3c2C)OC1(C)C , kindly confirm whether its viability, T/C is beneath 80%.
Result string: T

Query string: # strict comparison: is reported viability, T/C < 80%? input = CC1COCCN1c1cc(C2(O)CC3CCC(C2)O3)c2cnn(-c3ccn[nH]3)c2n1 (stereo not given) + Cc1cccc(N(C)C(=O)C2C(O)CCN2c2nc(C)cc(C(F)(F)F)c2C#N)c1
Result string: T

Query string: is_below(viability, T/C, 80%) for O=C(Nc1ccc(O)c(NS(=O)(=O)c2ccc(F)cc2)c1)c1ccc(-c2ccccc2)cc1 + COC1C(OC(N)=O)C(O)C(Oc2ccc3c(O)c(NC(=O)c4ccc(O)c(CC=C(C)C)c4)c(=O)oc3c2C)OC1(C)C ?
Result string: F

Query string: Lab note: viability, T/C threshold 80%. Does this molecule come in strictly under it? CC1COCCN1c1cc(-c2ccnn2C)c2ccnc(-c3ccn[nH]3)c2n1 (stereo not given) + Nc1ccc(C#CCN(C(=O)Cc2ncc(C(F)(F)F)cc2C(F)(F)F)c2ccc(F)cc2)nn1
Result string: T

Query string: Determine whether this molecule shows viability, T/C lower than 80% (ties excluded): COc1cc2cc(C(=O)CCC(=O)O)sc2cc1OC + Nc1ccc(C#CCN(C(=O)Cc2ncc(C(F)(F)F)cc2C(F)(F)F)c2ccc(F)cc2)nn1
Result string: F
